- System: SF-539 CNS
- PROTOCOL TEXT: NCI tumour cell line growth inhibition, 48 h; in the data active means GI50 below about 0.43 µM; inactive means the rest
I would appreciate it if you answered using one of these outcomes: active, inactive

As a guide, the following entries are already answered.
- MOLECULE: "COc1ccc(C2NC(=O)c3cc4c(cc3N2)OCO4)cc1 (stereo not given)"
  GROUP LABEL: "inactive"
- MOLECULE: "COc1ccc(C(O)c2cc3c(N)c(C(=O)Nc4ccccc4)sc3nc2C)cc1 (stereo not given)"
  GROUP LABEL: "active"
- MOLECULE: "CC(C)NCCCNc1c2ccccc2nc2cccc([N+](=O)[O-])c12"
  GROUP LABEL: "active"
- MOLECULE: "C#CCNCCCN1C(=O)c2ccc3c4c(ccc(c24)C1=O)C(=O)N(CCCNCC#C)C3=O"
  GROUP LABEL: "inactive"

Asked: For this molecule, state the assay outcome: O=C1NC(=NCc2c(Cl)cccc2Cl)S/C1=C\c1ccc2ncccc2c1
Given back: inactive

---

- System: MCF7 breast
- PROTOCOL TEXT: NCI tumour cell line growth inhibition, 48 h
OBSERVATION TYPE: TGI

Please state TGI for every molecule in the list that follows.
1. CC1(C)OCC(C2OC(OC(=O)c3ccc(C(F)(F)F)cc3)C3OC(C)(C)OC23)O1 (configuration not stated)
2. C=C1CC[C@]2(C)[C@H](CC[C@@]34C[C@@H](CC[C@H]32)[C@@H](C(=O)O)C4)C1(C)C
3. NC(N)=N/N=C(\c1ccc(F)cc1)c1ccc(C(F)(F)F)cc1
4. CCC(=O)NC(Nc1ccccc1F)(C(F)(F)F)C(F)(F)F

Given back:
["> 77.5 µM", "> 12.5 µM", "2.15 µM", "> 100 µM"]

---

- Tested on: PC-3 prostate
- PROTOCOL TEXT: NCI tumour cell line growth inhibition, 48 h
OBSERVATION TYPE: TGI (µM)
Give bare numbers, in µM.

Recorded results for 2 compounds are shown here.
- COMPOUND: "CC(C)NCCCNc1c2ccccc2nc2cccc([N+](=O)[O-])c12"
  OBSERVATION TYPE: "TGI"
  EXPERIMENTAL RESULT: 0.038
- COMPOUND: "CCCCCCCCCCCCCCCC(=O)Nc1ccn(C2CC(OP(=O)(O)OCC3OC(n4cc(F)c(=O)[nH]c4=O)CC3OC(C)=O)C(CO)O2)c(=O)n1 (stereo not drawn)"
  OBSERVATION TYPE: "TGI"
  EXPERIMENTAL RESULT: 25.2

For every record below, what is its TGI?
1. CCOc1ccc(C2Oc3c(cccc3OC)C=C2[N+](=O)[O-])cc1OCC (stereo not drawn)
2. COC(=O)[C@]12CC[C@@H](C)[C@H](C)[C@@H]1C1=CC[C@@H]3[C@@]4(C)C[C@@H](OC(C)=O)[C@H](O)[C@@](C)(CO)[C@@H]4[C@H](O)C[C@@]3(C)[C@]1(C)CC2

Given back:
[14.9, 20.5]

---

Exercise: for every item that follows, state its recorded TGI.
- System: HCC-2998 colon
- PROTOCOL TEXT: NCI tumour cell line growth inhibition, 48 h

- MOLECULE: "COC(=O)N[C@H]1C=C[C@@H]2/C=C(C)/C=C/[C@@H](C)[C@H]([C@H](C)[C@H](O)[C@@H](C)NC(C)=O)OC(=O)/C=C/C=C(C)\\C=C\\[C@]2(C)C1"
  SYSTEM NAME: "HCC-2998 colon"
  TGI: "> 45.3 µM"
- MOLECULE: "CCCCCCCCCCCCCCCC(=O)Nc1ccn(C2CC(OP(=O)(O)OCC3OC(n4cc(F)c(=O)[nH]c4=O)CC3OC(C)=O)C(CO)O2)c(=O)n1 (stereo not drawn)"
  SYSTEM NAME: "HCC-2998 colon"
  TGI: "> 36.5 µM"

// each listed molecule needs a value for TGI
1. CC(=O)/C(=C\c1c(-c2ccccc2)[nH]c2ccccc12)S(C)(=O)=O
2. CC(C)C(NCc1c2ccccc2[n+]([O-])c2ccccc12)C(=O)O (stereo not drawn)
3. COC(=O)[C@]12CC[C@@H](C)[C@H](C)[C@@H]1C1=CC[C@@H]3[C@@]4(C)C[C@@H](OC(C)=O)[C@H](O)[C@@](C)(CO)[C@@H]4[C@H](O)C[C@@]3(C)[C@]1(C)CC2
4. NC(=O)/C(=N\NC(=O)c1cc2ccccc2cc1O)C1C(=O)N(c2ccccc2)N=C1N (stereo not drawn)
5. O=C1c2ccccc2CC12CCC1(CC2)OCCO1
6. O=C1C=CC2(NN=C(c3ccccc3)N2c2ccccc2)c2cccc(O)c21 (stereo not drawn)
7. N/N=c1\c2ccccc2c2ccc3c4ccccc4/c(=N\N)c3c12
8. Cc1ccc2c(/C=C/c3ccc(N(C)C)cc3)ccnc2c1C

Given back:
1: 33.9 µM; 2: > 100 µM; 3: 26.7 µM; 4: > 100 µM; 5: > 100 µM; 6: 13 µM; 7: > 100 µM; 8: 95.6 µM

# per-item lookup of TGI; items listed below
1. COc1ccc(CCc2nc3cc(-c4c(C)noc4C)ccc3n2CCN2CCOCC2)cc1
2. O=C1NC(=NCc2c(Cl)cccc2Cl)S/C1=C\c1ccc2ncccc2c1
3. N#CC(C(=O)C(N)=O)c1ccccc1Cl (stereo not drawn)
4. O=C(NCCn1ccnn1)Nc1ccccc1
5. Cc1cc(O)c(C=NC(=S)c2ccncc2)c(=O)o1

Given back:
1. 97.5 µM
2. > 25 µM
3. > 100 µM
4. > 100 µM
5. > 100 µM

Batch: TGI for all items listed.
1. O=c1oc2c([N+](=O)[O-])cc([N+](=O)[O-])cc2c2ccccc12
2. CCC(=O)NC(Nc1ccccc1F)(C(F)(F)F)C(F)(F)F
3. CC(=O)/C(=C\c1ccccc1)C(=O)Nc1ccccc1
4. CC(=O)OC1COC(n2nc(N)nc2C)C(OC(C)=O)C1OC(C)=O (stereo not drawn)
5. Oc1ccc2c(c1)OCC1(O)Cc3cc(O)c(O)cc3C21 (stereo not drawn)

Given back:
1: > 100 µM; 2: > 100 µM; 3: > 100 µM; 4: > 100 µM; 5: 36 µM

Provenance of the data: PubChem BioAssay (NCI)
